Reference for the values: PubChem BioAssay AID1996

- Conditions used: buffer; pH 7.4; 200.0 µM
Reported metric: solubility kinetic

Worked cases, answers included:
INSERT INTO results (compound, reported_metric, test_result) VALUES
  ('O=C(CCc1ccccc1)N1CCN(c2ccc(F)cc2)CC1', 'solubility kinetic', '> 46.9 µg/mL'),
  ('NC(=O)C1CCN(CC(O)CSc2ccccc2)CC1 (centres undefined)', 'solubility kinetic', '> 44.2 µg/mL');

Complete the entry with solubility kinetic for "O=C(CSc1nncs1)Nc1ccc2c(c1)OCO2"
> 44.3 µg/mL

Supply solubility kinetic value. Item: "Cc1ccc(NC(=O)NCCCN2CCCC2=O)cc1C"
> 43.4 µg/mL

Given "Cl.N=C(N)SCP(=O)(c1ccccc1)c1ccccc1" , respond with its solubility kinetic.
> 49 µg/mL

Look up and state reported solubility kinetic for "Cc1csc(NC(=O)c2ccc(S(C)(=O)=O)cc2)n1"
> 44.5 µg/mL

Fill in reported solubility kinetic for this entry: "CCOc1ccc2oc(C(=O)Nc3nccs3)c(C)c2c1"
2.2 µg/mL

Consider the compound "Cc1nc(NCCc2ccccc2)sc1C(=O)O" and give its recorded solubility kinetic.
38.7 µg/mL

Provide one value: measured solubility kinetic of Cc1ccccc1CN1CCN(CC(=O)NC(C)c2ccccc2)CC1 (centres undefined)
47.8 µg/mL

----------
- Conditions used: buffer; pH 7.4; 200.0 µM
Reported metric: solubility kinetic

Example cases with answers are listed next.
INSERT INTO results (compound, reported_metric, test_result) VALUES
  ('CC(=O)c1cc(Cl)ccc1OCC(=O)NC1CCCC1', 'solubility kinetic', '> 44.4 µg/mL'),
  ('CCOc1cc(C(=O)NC)cc(Br)c1OC', 'solubility kinetic', '> 43.2 µg/mL'),
  ('O=C(OCC(=O)N1CCOCC1)c1cccc(F)c1', 'solubility kinetic', '> 40.1 µg/mL'),
  ('NC(=S)C1COc2ccccc2O1 (stereo not given)', 'solubility kinetic', '> 29.3 µg/mL'),
  ('O=C(CNCc1cccc(Cl)c1)N1CCc2ccccc2C1', 'solubility kinetic', '38.9 µg/mL');

Please give measured solubility kinetic of the following entry: "CN(CC(=O)Nc1ccc2c(c1)OCCO2)CC(=O)Nc1ccc(F)c(F)c1F"
> 61.4 µg/mL

----------
- Conditions used: buffer; pH 7.4; 200.0 µM
Entries and their log10(solubility kinetic)
Give log10 of solubility kinetic, with solubility kinetic taken in mg/mL.

Use the examples below as a reference point.
INSERT INTO assay_data (compound, reported_metric, test_result) VALUES
  ('O=C(c1cccc(Cl)c1)N1CCn2c1nc1ccccc12', 'log10(solubility kinetic)', -3.05),
  ('CCOc1ccc2[nH]c3c(N4CCc5ccccc5C4)ncnc3c2c1', 'log10(solubility kinetic)', -2.92),
  ('CC(=O)N=C1SC2CS(=O)(=O)CC2N1Cc1ccc(C)cc1 (centres undefined)', 'log10(solubility kinetic)', -1.71),
  ('Brc1c(-c2ccc3c(c2)OCO3)nc2ncccn12', 'log10(solubility kinetic)', -1.41),
  ('Cc1c(C(=O)NC2=NCCS2)cccc1[N+](=O)[O-]', 'log10(solubility kinetic)', -1.43),
  ('Cc1cc(C)cc(NC(=O)Nc2cccc(S(N)(=O)=O)c2)c1', 'log10(solubility kinetic)', -2.60),
  ('COc1ccccc1C(=O)NC(=O)CSc1ccc(C)c(C)c1', 'log10(solubility kinetic)', -1.85),
  ('CCCOC(=O)Cn1cnc2scc(-c3ccc(C)cc3)c2c1=O', 'log10(solubility kinetic)', -1.76);

Read off the recorded log10(solubility kinetic) for COc1ccccc1NC(=O)c1csc2c1CCC(C)C2 (centres undefined)
-2.92

# return recorded log10(solubility kinetic) for entry "O=C(CNC(=O)c1cccc(OC(F)F)c1)Nc1ccc(Cl)cc1"
-2.47

State its log10(solubility kinetic) for this compound: "CN(C)S(=O)(=O)c1ccc(NC=C(C#N)C#N)cc1"
-1.58

Give a short answer stating reported log10(solubility kinetic) for "COc1ccc([N+](=O)[O-])cc1NCC(=O)c1ccc(C)cc1" .
-1.85

Give a short answer stating reported log10(solubility kinetic) for "COc1ccc(NC(=O)COCC(=O)Nc2ccc(C)cc2)cc1" .
-1.35

Return log10(solubility kinetic) (reported value) for this compound: "O=C(Nc1ccc(N2CCCC2)cc1)c1ccc(Cl)cc1Cl"
-3.30

Read off the recorded log10(solubility kinetic) for "CCCN1CNc2c(c(=O)[nH]c(=S)n2CCc2ccccc2)C1"
-2.77

Name the recorded log10(solubility kinetic) of the compound listed here: "CCCCNC(=O)C(=O)NCc1ccncc1"
-1.48
